Data credit: patent US20210246166A1

Answer each item with its documented human MASP2 IC50.
testedSystem: Recombinant human MASP2 enzyme (fragment corresponding to amino acids 297-686, C-terminal His Tag) (human, UniProt O00187 297-686)
Sequence (O00187 other isoform, or with tags, fused parts or gaps limits assumed): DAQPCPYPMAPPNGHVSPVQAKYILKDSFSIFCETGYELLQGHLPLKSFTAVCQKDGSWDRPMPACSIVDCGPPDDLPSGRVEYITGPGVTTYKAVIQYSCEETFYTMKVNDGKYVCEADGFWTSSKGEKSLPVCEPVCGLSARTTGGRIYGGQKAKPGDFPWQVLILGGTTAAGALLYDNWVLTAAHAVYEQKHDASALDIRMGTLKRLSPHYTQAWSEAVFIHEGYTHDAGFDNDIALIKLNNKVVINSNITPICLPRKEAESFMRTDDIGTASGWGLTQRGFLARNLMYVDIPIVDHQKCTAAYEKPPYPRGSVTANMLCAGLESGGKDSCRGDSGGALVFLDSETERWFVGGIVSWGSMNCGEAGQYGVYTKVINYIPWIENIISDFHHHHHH
testDescription: cell-based or functional assay
Bridge positions count the residues as written; N and C are the ends. Square brackets hold non-standard residues; d marks the D form. Ends that are not written are not given here. Phe(3-COOH) = N[C@@H](Cc1cccc(C(=O)O)c1)C(=O)O; Oic = O=C(O)[C@@H]1C[C@@H]2CCCC[C@@H]2N1; tBuAla = CC(C)(C)C[C@H](N)C(=O)O; Aad = N[C@@H](CCCC(=O)O)C(=O)O; Pen = CC(C)(S)[C@H](N)C(=O)O; Sar = CNCC(=O)O
Output spec: scalar in nM, unitless text.

Problem: # lookup: human MASP2 IC50 of [Sar]ICSRSLP[Oic]I[Pen]IP[Aad]-OH (disulfide 3-11; N-terminus assumed; SMILES CC[C@H](C)[C@H](NC(=O)CNC)C(=O)N[C@H]1CSSC(C)(C)[C@@H](C(=O)N[C@H](C(=O)N2CCC[C@H]2C(=O)N[C@@H](CCCC(=O)O)C(=O)O)[C@@H](C)CC)NC(=O)[C@H]([C@@H](C)CC)NC(=O)[C@@H]2C[C@@H]3CCCC[C@@H]3N2C(=O)[C@@H]2CCCN2C(=O)[C@H](CC(C)C)NC(=O)[C@H](CO)NC(=O)[C@H](CCCNC(=N)N)NC(=O)[C@H](CO)NC1=O) [((N-Me)G)-IC+SRSLP-(Oic)-I-(Pen)+IP-(AAD)-OH]
Solution: 150

Problem: Would you mind telling me what human MASP2 IC50 value was observed for [Sar]ICSRS[tBuAla]PPI[Pen]IP[Phe(3-COOH)]-OH (disulfide 3-11; N-terminus assumed; SMILES CC[C@H](C)[C@H](NC(=O)CNC)C(=O)N[C@H]1CSSC(C)(C)[C@@H](C(=O)N[C@H](C(=O)N2CCC[C@H]2C(=O)N[C@@H](Cc2cccc(C(=O)O)c2)C(=O)O)[C@@H](C)CC)NC(=O)[C@H]([C@@H](C)CC)NC(=O)[C@@H]2CCCN2C(=O)[C@@H]2CCCN2C(=O)[C@H](CC(C)(C)C)NC(=O)[C@H](CO)NC(=O)[C@H](CCCNC(=N)N)NC(=O)[C@H](CO)NC1=O) [((N-Me)G)-IC+SRS-((tBu)A)-PPI-(Pen)+IP-((3-Carboxy)F)-OH] ?
Solution: 25
